molecular target: UniProtKB P0DTD1; test: Rapid-Fire MS Biochemical Assay measuring Mpro activity (5 nM Mpro); conditions: Table 1B, Mpro inhibition, 5 μM substrate peptide, 120 min, read-out: Rapid-Fire Assay IC50
Reported IC50 values are given for each entry in this list.

Use these answered entries as a reference point.
* CS(=O)(=O)c1ccc2cncc(N3C(=O)N(c4cc(F)cc(F)c4)C[C@H]3C#N)c2c1 (single isomer, unassigned) [Compound 86b] | > 1000 nM
* N#C[C@H]1CN(C2CCC(F)(F)C2)C(=O)N1c1cncc2ccccc12 (single isomer, unassigned) [Compound 141a] | 20 to 200 nM
* N#C[C@H]1CN(c2ccc(F)c(Cl)c2)C(=O)N1c1cncc2ccccc12 (single isomer, unassigned) [Compound 87a] | < 20 nM
* N#C[C@@H]1CN(c2cccc3cn[nH]c23)C(=O)N1c1cncc2ccccc12 (single isomer, unassigned) [Compound 63b] | > 1000 nM
* Cc1ccc(C(F)(F)F)nc1N1C[C@H](C#N)N(c2cncc3ccccc23)C1=O (single isomer, unassigned) [Compound 82a] | 20 to 200 nM

If you can, please state the reported IC50 value of N#C[C@H]1CN(c2ncc(C(F)(F)F)[nH]2)C(=O)N1c1cncc2ccccc12 (single isomer, unassigned) [Compound 68a] .
20 to 200 nM

If you can, please state the reported IC50 value of Cc1ccc(C#N)c(N2C[C@@H](C#N)N(c3cncc4ccccc34)C2=O)c1 (single isomer, unassigned) [Compound 116b] .
200 to 1000 nM

If you can, please state the reported IC50 value of Cc1c[nH]c(N2C[C@H](C#N)N(c3cncc4ccccc34)C2=O)n1 (single isomer, unassigned) [Compound 118a] .
200 to 1000 nM

If you can, please state the reported IC50 value of N#Cc1ccc(N2C[C@@H](C#N)N(c3cncc4ccccc34)C2=O)cc1 (single isomer, unassigned) [Compound 50b] .
> 1000 nM

If you can, please state the reported IC50 value of N#C[C@@H]1CN(c2ccc(OC(F)F)cc2F)C(=O)N1c1cncc2ccccc12 (single isomer, unassigned) [Compound 83b] .
> 1000 nM

If you can, please state the reported IC50 value of CC(C)(O)c1ccc2cncc(N3C(=O)N(c4cccc(Cl)c4)CC3C#N)c2c1 (stereo not drawn) [Compound 34] .
< 20 nM

If you can, please state the reported IC50 value of CC(C)n1cc(N2CC(C#N)N(c3cncc4ccccc34)C2=O)cn1 (racemic) [Compound 64] .
20 to 200 nM

If you can, please state the reported IC50 value of N#CC1CN(c2cccc(C(F)(F)F)c2)C(=O)N1c1cncc2ccccc12 (racemic) [Compound 106] .
> 1000 nM

If you can, please state the reported IC50 value of N#C[C@@H]1CN(c2ccnc(C(F)(F)F)c2)C(=O)N1c1cncc2ccccc12 (single isomer, unassigned) [Compound 57b] .
> 1000 nM

If you can, please state the reported IC50 value of N#C[C@@H]1CN(c2nc(Cl)c[nH]2)C(=O)N1c1cncc2ccccc12 (single isomer, unassigned) [Compound 119b] .
> 1000 nM

If you can, please state the reported IC50 value of N#CC1CN(C2CCC(F)CC2)C(=O)N1c1cncc2ccccc12 (single isomer, unassigned) [Compound 121d] .
> 1000 nM

If you can, please state the reported IC50 value of N#C[C@@H]1CN(c2cc(F)cc(F)c2)C(=O)N1c1cncc2ccccc12 (single isomer, unassigned) [Compound 110b] .
200 to 1000 nM

If you can, please state the reported IC50 value of COc1cc(Cl)ccc1N1CC(C#N)N(c2cncc3ccccc23)C1=O (racemic) [Compound 103] .
20 to 200 nM

---

Reported pIC50 values are given for each entry in this list.
molecular target: SARS-CoV-2 main protease (M^pro) (Severe acute respiratory syndrome coronavirus 2, UniProt P0DTD1); test: Rapid-Fire MS Biochemical Assay measuring Mpro activity (5 nM Mpro); details: Table 1B, Mpro inhibition, 5 μM substrate peptide, 120 min, read-out: Rapid-Fire Assay IC50
pIC50: −log10 of the molar value.

• Cc1ccc(Cl)cc1N1C[C@@H](C#N)N(c2cncc3ccccc23)C1=O (single isomer, unassigned) [Compound 114b] = < 6.00
• N#C[C@H]1CN(c2cccc(Cl)n2)C(=O)N1c1cncc2ccccc12 (single isomer, unassigned) [Compound 111a] = > 7.70

// switching to the query molecule
If you can, please state the reported pIC50 value of N#C[C@H]1CN(C2CC3(C2)CC(F)(F)C3)C(=O)N1c1cncc2ccccc12 (single isomer, unassigned) [Compound 127a] .
> 7.70

---

molecular target: SARS-CoV-2 main protease (M^pro) (Severe acute respiratory syndrome coronavirus 2); experiment: Rapid-Fire MS Biochemical Assay measuring Mpro activity (5 nM Mpro); conditions: Table 1B, Mpro inhibition, 5 μM substrate peptide, 120 min, read-out: Rapid-Fire Assay IC50
pIC50: −log10 of the molar value.
Reported pIC50 values are given for each entry in this list.

Use these answered entries as a reference point.
- N#C[C@H]1CN([C@H]2CCC(F)(F)C2)C(=O)N1c1cncc2ccccc12 (single isomer, unassigned) [Compound 141d]: 6.70 to 7.70
- N#C[C@@H]1CN(C23CC(F)(C2)C3)C(=O)N1c1cncc2ccccc12 (single isomer, unassigned) [Compound 139b]: < 6.00

// switching to the query molecule
If you can, please state the reported pIC50 value of N#C[C@H]1CN(c2cnnc(C(F)(F)F)c2)C(=O)N1c1cncc2ccccc12 (single isomer, unassigned) [Compound 13a] .
> 7.70

---

molecular target: SARS-CoV-2 main protease (M^pro) (Severe acute respiratory syndrome coronavirus 2, UniProt P0DTD1); assay: Rapid-Fire MS Biochemical Assay measuring Mpro activity (5 nM Mpro); settings: Table 1B, Mpro inhibition, 5 μM substrate peptide, 120 min, read-out: Rapid-Fire Assay IC50
pIC50: −log10 of the molar value.
assay.endpoint: pIC50

- COc1ccc(C(F)(F)F)cc1N1C[C@H](C#N)N(c2cncc3ccccc23)C1=O (single isomer, unassigned) [Compound 17a]: > 7.70
- N#C[C@@H]1CN([C@@H]2CCN(CCC(F)(F)F)C2)C(=O)N1c1cncc2ccccc12 (single isomer, unassigned) [Compound 26b]: < 6.00

If you can, please state the reported pIC50 value of CS(=O)(=O)c1ccc2cncc(N3C(=O)N(c4cccc(Cl)c4)C[C@@H]3C#N)c2c1 (single isomer, unassigned) [Compound 37a] .
> 7.70

If you can, please state the reported pIC50 value of CC(C)c1ccc(N2C[C@@H](C#N)N(c3cncc4ccccc34)C2=O)cn1 (single isomer, unassigned) [Compound 94b] .
< 6.00

If you can, please state the reported pIC50 value of N#CC1CN(c2ccnc(C(F)(F)F)c2)C(=O)N1c1cncc2ccccc12 (racemic) .
> 7.70

If you can, please state the reported pIC50 value of N#C[C@@H]1CN([C@H]2CC[C@H](C(F)(F)F)CC2)C(=O)N1c1cncc2ccccc12 [Compound 128b] .
< 6.00

If you can, please state the reported pIC50 value of N#C[C@H]1CN(c2cncc(C(F)(F)F)c2)C(=O)N1c1cncc2ccccc12 (single isomer, unassigned) [Compound 104a] .
> 7.70

If you can, please state the reported pIC50 value of COc1cc(C(F)(F)F)ccc1N1C[C@H](C#N)N(c2cncc3ccccc23)C1=O (single isomer, unassigned) [Compound 12a] .
> 7.70

If you can, please state the reported pIC50 value of COc1ccc(N2C[C@H](C#N)N(c3cncc4ccccc34)C2=O)cn1 (single isomer, unassigned) [Compound 112a] .
> 7.70

If you can, please state the reported pIC50 value of Cn1cc(N2C[C@H](C#N)N(c3cncc4ccccc34)C2=O)cn1 (single isomer, unassigned) [Compound 65a] .
6.70 to 7.70

---

target: SARS-CoV-2 main protease (M^pro) (Severe acute respiratory syndrome coronavirus 2, UniProt P0DTD1); test: Rapid-Fire MS Biochemical Assay measuring Mpro activity (5 nM Mpro); settings: Table 1B, Mpro inhibition, 5 μM substrate peptide, 120 min, read-out: Rapid-Fire Assay IC50
assay.endpoint: IC50

Use these answered entries as a reference point.
* N#C[C@@H]1CN([C@@H]2CCN(CCO)C2)C(=O)N1c1cncc2ccccc12 (single isomer, unassigned) [Compound 46b] | > 1000 nM
* CC(C)(O)c1cccc(N2C[C@@H](C#N)N(c3cncc4ccccc34)C2=O)c1 (single isomer, unassigned) [Compound 69b] | > 1000 nM

// switching to the query compound
If you can, please state the reported IC50 value of N#C[C@H]1CN(c2cccc(C(F)(F)F)n2)C(=O)N1c1cncc2ccccc12 (single isomer, unassigned) [Compound 51a] .
20 to 200 nM

---

Reported IC50 values are given for each entry in this list.
biological target: SARS-CoV-2 main protease (M^pro) (Severe acute respiratory syndrome coronavirus 2, UniProt P0DTD1); experiment: Rapid-Fire MS Biochemical Assay measuring Mpro activity (5 nM Mpro); conditions: Table 1B, Mpro inhibition, 5 μM substrate peptide, 120 min, read-out: Rapid-Fire Assay IC50

Use these answered entries as a reference point.
• N#C[C@H]1CN(c2cccc(Cl)c2)C(=O)N1c1cncc2ccccc12 (single isomer, unassigned) = < 20 nM
• COc1cnc(C(F)(F)F)cc1N1C[C@H](C#N)N(c2cncc3ccccc23)C1=O (single isomer, unassigned) [Compound 14a] = < 20 nM

If you can, please state the reported IC50 value of N#C[C@@H]1CN(c2cccc(Cl)n2)C(=O)N1c1cncc2ccccc12 (single isomer, unassigned) [Compound 111b] .
200 to 1000 nM
